measured.on: T1, EsCas13d, nuclease-dead (Eubacterium siraeum, UniProt B0MS50, R295A;H300A;R849A;H854A)
T1 sequence: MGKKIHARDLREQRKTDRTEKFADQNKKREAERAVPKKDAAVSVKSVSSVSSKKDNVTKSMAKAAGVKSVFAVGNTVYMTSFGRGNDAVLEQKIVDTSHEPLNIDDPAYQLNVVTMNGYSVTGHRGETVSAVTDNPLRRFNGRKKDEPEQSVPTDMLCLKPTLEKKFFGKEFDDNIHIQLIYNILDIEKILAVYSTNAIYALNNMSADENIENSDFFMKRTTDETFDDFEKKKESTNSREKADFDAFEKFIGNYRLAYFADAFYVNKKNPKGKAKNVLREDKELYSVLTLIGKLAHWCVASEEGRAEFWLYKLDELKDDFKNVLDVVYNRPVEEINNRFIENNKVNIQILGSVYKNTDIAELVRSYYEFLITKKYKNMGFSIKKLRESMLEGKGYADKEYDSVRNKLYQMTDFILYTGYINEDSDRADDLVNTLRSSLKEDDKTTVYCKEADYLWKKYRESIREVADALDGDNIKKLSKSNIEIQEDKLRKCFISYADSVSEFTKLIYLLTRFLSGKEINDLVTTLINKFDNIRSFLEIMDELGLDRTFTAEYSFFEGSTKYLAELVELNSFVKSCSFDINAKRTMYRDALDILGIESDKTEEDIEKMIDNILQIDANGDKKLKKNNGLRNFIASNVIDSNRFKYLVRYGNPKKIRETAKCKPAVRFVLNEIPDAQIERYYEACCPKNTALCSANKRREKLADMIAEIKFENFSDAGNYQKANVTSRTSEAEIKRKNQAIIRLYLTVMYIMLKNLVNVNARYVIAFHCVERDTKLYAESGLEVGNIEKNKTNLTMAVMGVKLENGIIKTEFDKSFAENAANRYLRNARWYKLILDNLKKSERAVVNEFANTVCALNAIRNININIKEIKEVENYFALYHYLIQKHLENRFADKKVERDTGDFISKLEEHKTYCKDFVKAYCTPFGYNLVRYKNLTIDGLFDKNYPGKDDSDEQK
protocol.description: crRNA (strand 1, pre-loaded); Mg2+; 40 mM Tris-HCl pH 7.5, 150 mM NaCl, 6 mM MgCl2, 1 mM DTT, 0.1% Tween-20, 0.2 mg/ml BSA; 25 C; 10 min per concentration, then washed
test.parameters: tags: His6-TwinStrep-SUMO cleaved; N-terminal SNAP kept (SNAP-Surface 488); label: 3' end held by stalled T7 RNA polymerase
pKd: −log10 of the molar value.
In this section we review reported pKd values for a set of binders.
readout.label: pKd

1. target 1 MT 5'PFS CUC 3'PFS UAA (mixed) RNA 1: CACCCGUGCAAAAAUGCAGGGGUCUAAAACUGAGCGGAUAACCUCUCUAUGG RNA 2: GGGAAUGGAUCCACAUCUACGAAUUCCUCCCAUAGAGAGGUUAUCCGCUCAUAAAGAUCGGAAGAGCACACGU    7.23
2. target 1 insC 3' of 12,insU 3' of 1 (mixed) RNA 1: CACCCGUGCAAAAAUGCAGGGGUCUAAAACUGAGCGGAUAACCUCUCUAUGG RNA 2: GGGAAUGGAUCCACAUCUACGAAUUCGUACCAUAGAGAGGCUUAUCCGCUCAUCCGAGAUCGGAAGAGCACACGU    7.92
3. target 1 A1C,G12A (mixed) RNA 1: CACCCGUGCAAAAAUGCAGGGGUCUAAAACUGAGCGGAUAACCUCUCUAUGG RNA 2: GGGAAUGGAUCCACAUCUACGAAUUCGUACCAUAGAGAGAUUAUCCGCUCCCCGAGAUCGGAAGAGCACACGU    8.18
4. target 1 MT 5'PFS GGU 3'PFS UCU (mixed) RNA 1: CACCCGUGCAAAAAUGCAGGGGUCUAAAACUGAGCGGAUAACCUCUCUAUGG RNA 2: GGGAAUGGAUCCACAUCUACGAAUUCGGUCCAUAGAGAGGUUAUCCGCUCAUCUAGAUCGGAAGAGCACACGU    7.47

Entry source: paper PMC10786891
